experimental-system: M. globosa CYP51 (Malassezia globosa, UniProt A8Q3I7, A7V/E4L/G6A/I5L/L2A/Q3L/W8F)
Sequence (A8Q3I7 whole entry L2A/Q3L/E4L/I5L/G6A/A7V/W8F): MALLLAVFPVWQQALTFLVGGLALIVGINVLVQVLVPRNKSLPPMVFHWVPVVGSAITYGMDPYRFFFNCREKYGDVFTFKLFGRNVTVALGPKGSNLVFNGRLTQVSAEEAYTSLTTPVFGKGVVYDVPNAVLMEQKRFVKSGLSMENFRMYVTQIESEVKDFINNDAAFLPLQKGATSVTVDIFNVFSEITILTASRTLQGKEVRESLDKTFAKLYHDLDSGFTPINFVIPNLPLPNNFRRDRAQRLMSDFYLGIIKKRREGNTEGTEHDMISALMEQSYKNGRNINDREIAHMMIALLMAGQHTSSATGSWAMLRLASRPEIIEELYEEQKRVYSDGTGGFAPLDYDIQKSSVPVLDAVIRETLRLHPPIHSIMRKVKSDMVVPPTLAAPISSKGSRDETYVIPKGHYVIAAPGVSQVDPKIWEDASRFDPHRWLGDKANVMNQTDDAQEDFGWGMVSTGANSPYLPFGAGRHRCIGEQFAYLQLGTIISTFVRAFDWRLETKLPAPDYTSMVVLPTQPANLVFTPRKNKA
measurement-protocol: biochemical
Type: binding
condition-info: azole titrated against 2 μM CYP51, Morrison equation
readout: Kd

# query: Kd of entry CC(=O)N1CCN(c2ccc(NCC3COC(Cn4ccnc4)(c4ccc(Cl)cc4Cl)O3)cc2)CC1 (stereo not shown)
3 nM

---

experimental-system: M. globosa CYP5218 (Malassezia globosa, UniProt A8QCD3, A3L/A5L/F6A/I7V/S4L/S8F)
measurement-protocol: biochemical
Assay type: binding
condition-info: Kd, azole titrated against 2 μM CYP5218
pKd: −log10 of the molar value.
Reported pKd by item:

compound="CC(=O)N1CCN(c2ccc(OCC3COC(Cn4ccnc4)(c4ccc(Cl)cc4Cl)O3)cc2)CC1 (centres unmarked)" readout=pKd readout_value=~5.80

Consider the additional compound presented here.
# query: pKd of entry C[C@@H](c1ncncc1F)[C@](O)(Cn1cncn1)c1ccc(F)cc1F
~3.97
